The measured values listed here are drawn from ChEMBL document CHEMBL3988442.

test system: Wolbachia pipientis; experiment: Anti-Wolbachia Cell-Based Screen; assay type: functional; set-up: scale not given: in the data most compounds retested in dose-response had high values; settings: 5 µM
In all, about 48,000 compounds went through this assay and about 13,000 (27%) showed an effect of 50% or more. This is one part of the list.
Collected Percent Effect values appear next to each entry.

| compound | result units | Percent Effect |
| --- | --- | --- |
| O=C(NCCNc1ncccn1)C1CCN(CC(F)(F)F)CC1 | % | 1.799 |
| O=C(NCCNc1ncccn1)C1CCN(C(=O)NC2CC2)CC1 | % | 95.19 |
| CC(C)(C)OC(=O)N1CCC(C(=O)NCCNc2ncccn2)CC1 | % | 98.46 |
| COCCN1CCC2(CCN(CC3CC3)CC2)C1=O.O=C(O)C(F)(F)F | % | -9.065 |
| COCC1CCCCN1Cc1nc(-c2ccoc2)oc1C (configuration not stated) | % | 2.327 |
| CC(C)N1CCC(CC(=O)NCC2OCCc3ccccc32)CC1 (configuration not stated) | % | -17.34 |
| c1cnc(N2CCC(NCc3cnc(C4CCC4)s3)CC2)nc1 | % | 3.36 |
| Cc1n[nH]c(C)c1CCC(=O)NCC1COc2ccccc2C1 (configuration not stated) | % | -6.3 |
| O=C(NCCNC(=O)C1CCN(c2ncccn2)CC1)c1ccoc1 | % | -1.676 |
| CN(C)c1nccc(CNC(=O)NC(C)(C)C)n1 | % | -4.369 |
| CCn1c(CN(C)CC(=O)N(C)C)nc2c(F)cccc21 | % | -12.46 |
| O=C(O)c1cccnc1CN1CCOc2ccccc2C1 | % | -4.779 |
| CC(C)c1nc2n(n1)CC(NCc1nc(-c3ccsc3)no1)CC2 (configuration not stated) | % | -1.114 |
| CN(C)C(=O)C1CCN(Cn2ccc(-c3ccc(F)cc3)n2)CC1 | % | -0.7457 |
| CN(C)C(=O)C1CCN(Cn2nc(-c3ccc(F)cc3)oc2=O)CC1 | % | 103.8 |
| c1cnc(N2CCC(c3csc(Nc4cnccn4)n3)CC2)nc1 | % | 101.3 |
| Cc1[nH]nc(CCC(=O)NCC2CCCN(C3CCCC3)C2)c1C (configuration not stated) | % | 91.65 |
| Cc1nn2c(N3CCC(O)C3)cc(-c3ccccc3)nc2c1C (configuration not stated) | % | 3.691 |
| CCc1cc(NCCS(=O)(=O)N(C)C)nc(N2CCOCC2)n1 | % | 7.02 |
| CCNC(=O)C1CCN(Cn2nc(-c3ccc(F)cc3)oc2=O)CC1 | % | 109.5 |
| COCCN1CCC2(CCCN(C(=O)c3cncn3C)C2)CC1.O=C(O)C(F)(F)F | % | -17.89 |
| CCNC(=O)NC(=O)CNC1(c2noc(C)n2)CCCC1 | % | 91.61 |
| CCNC(=O)NCc1ccnc(N(C)C)n1 | % | -21.64 |
| O=C(NCCNc1ncccn1)N1CCSCC1 | % | -3.552 |
| Cc1[nH]nc(CCC(=O)NCC2COc3ccccc3C2)c1C (configuration not stated) | % | -76.22 |
| O=C(NS(=O)(=O)c1cccc(F)c1)c1ccccc1F | % | -17.84 |
| OC(c1cccs1)C1CCN(c2ncccn2)CC1 (configuration not stated) | % | 0.2293 |
| CN(C)c1nccc(-c2cnc(N(C)C)[nH]c2=O)n1 | % | 117.9 |
| COCCN1CCC2(CCN(c3ncccn3)CC2)C1=O.O=C(O)C(F)(F)F | % | 97.58 |
| O=C(NC[C@H]1OC[C@@H]2CCN(c3ncccn3)C[C@@H]21)c1ccnnc1 | % | 8.157 |
| O=C1CN(Cc2cnc3c(-c4ccccc4)cnn3c2)CCCN1 | % | -7.334 |
| CN(C)c1cccc(C(=O)Nc2cnn(Cc3ccccn3)c2)c1 | % | -6.173 |
| c1cnc(N2CCCC(c3csc(Nc4cnccn4)n3)C2)nc1 (configuration not stated) | % | 106 |
| Cc1[nH]nc(CCC(=O)NCC2CCN(C3CCCCC3)C2)c1C (configuration not stated) | % | 82.83 |
| CS(=O)(=O)NCc1cc(-c2cc(F)cc(F)c2)nc(N2CC[C@H](O)C2)n1 | % | 97.73 |
| N#Cc1ccccc1OCCN1CCn2c(nnc2C2CC2)C1 | % | -2.907 |
| CS(=O)(=O)NCc1cc(-c2cc(F)cc(F)c2)nc(N2CCCC2)n1 | % | 85.03 |

----------
Collected Percent Effect values appear next to each entry.
test system: Wolbachia pipientis; assay: Anti-Wolbachia Cell-Based Screen; type: functional; set-up: scale not given: in the data most compounds retested in dose-response had high values; settings: 5 µM
Out of some 48,000 compounds screened, about 13,000 (27%) showed an effect of 50% or more. The list shows a part of the results.
measure name: Percent Effect

| compound | measure name | result |
| --- | --- | --- |
| C1CN(CC2CCOCC2)Cc2c(CN3CCOCC3)nnn2C1 | Percent Effect | 2.088% |
| CNS(=O)(=O)CCn1cc(-c2ccc(NC(C)=O)cc2)nn1 | Percent Effect | -17.97% |
| O=C(O)C(F)(F)F.c1cnc(N2CCCn3nnc(COCC4CC4)c3C2)nc1 | Percent Effect | -15.27% |
| CCCOc1ccc(C(=O)N2CC[C@H]3CC[C@@H](C2)N3)cc1Cl | Percent Effect | -21.75% |
| O=C(O)C(F)(F)F.O=C(c1ccco1)N1C[C@H]2CCCN(CC3CCOCC3)[C@H]2C1 | Percent Effect | -19.49% |
| CN(CC1CC1)C(=O)Cc1csc(-c2ncccn2)n1 | Percent Effect | -2.04% |
| c1cc(CN2CCCn3nnc(COCC4CC4)c3C2)ccn1 | Percent Effect | -2.908% |
| CC(C)(O)CN1CCN(C(=O)c2cc(Cl)cc3cccnc23)CC1 | Percent Effect | -2.728% |
| CC(C)(O)CN1CCN(C(=O)c2cccc3[nH]ncc23)CC1 | Percent Effect | 5.71% |
| CCc1ccc(C(=O)N2CCC(N(C)C(=O)OC(C)(C)C)C2)o1 (stereo not given) | Percent Effect | 8.552% |
| CCc1oc(C(=O)N2CCCC(c3nnn[nH]3)C2)cc1C (stereo not given) | Percent Effect | -3.531% |
| CCOc1ccc(Cl)c(C(=O)N2CCN(CC(C)(C)O)CC2)n1 | Percent Effect | 117.3% |
| CCOc1ccc(Cl)c(C(=O)N2CCN(C(=O)c3ccoc3C)CC2)n1 | Percent Effect | -0.3279% |
| O=C(O)C(F)(F)F.O=C1CCCN1Cc1nnn2c1CN(c1cccnc1)CCC2 | Percent Effect | 87.49% |
| Cc1cnnn1Cc1nnn2c1CN(Cc1ccccn1)CCC2.O=C(O)C(F)(F)F | Percent Effect | -8.238% |

----------
system: Wolbachia pipientis; assay: Anti-Wolbachia Cell-Based Screen; type: functional; design: scale not given: in the data most compounds retested in dose-response had high values; settings: 5 µM
The whole screen tested about 48,000 compounds, of which about 13,000 (27%) showed an effect of 50% or more. The list shows a part of the results.

| compound | experimental system | Percent Effect, % |
| --- | --- | --- |
| CS(=O)(=O)c1ccc(CN2CCCCC2c2ccc(F)cc2)cc1 (stereo not drawn) | Wolbachia pipientis | 14.88 |
| O=S(=O)(c1ccc(F)cc1)N1CCCCC1c1cc[nH]n1 (stereo not drawn) | Wolbachia pipientis | 93.21 |
| O=C(Cc1ccc(O)c(Cl)c1)N1CCCCC1CCn1cccn1 (stereo not drawn) | Wolbachia pipientis | -6.522 |

----------
Collected Percent Effect values appear next to each entry.
test system: Wolbachia pipientis; assay: Anti-Wolbachia Cell-Based Screen; type: functional; design: scale not given: in the data most compounds retested in dose-response had high values; details: 5 µM
Out of some 48,000 compounds screened, about 13,000 (27%) showed an effect of 50% or more. The list shows a part of the results.

| molecule | experimental system | result units | Percent Effect |
| --- | --- | --- | --- |
| COc1ccc(C)c2c1N(C(=O)c1cnc(C)s1)CCC2 | Wolbachia pipientis | % | 46.61 |
| N#Cc1ccccc1CN1C[C@@H]2CC[C@H](C1)N(CC1CC1)C2=O | Wolbachia pipientis | % | -10.09 |
| O=C(Nc1ccc(F)cc1)N1C[C@H]2C[C@H](C(=O)N3CCOCC3)[C@@H](C1)O2 | Wolbachia pipientis | % | 1.969 |
| CCc1ccc(NC(=O)N2C[C@H]3C[C@H](C(=O)N4CCCC4)[C@@H](C2)O3)cc1 | Wolbachia pipientis | % | 103.5 |
| CC(C)c1nc(O)c2nnn(C[C@@H]3CCCN(Cc4ccsc4)C3)c2n1 | Wolbachia pipientis | % | 123.6 |
| CNC(=O)N1C[C@H]2C[C@H](C(=O)Nc3ccccc3)[C@@H](C1)O2 | Wolbachia pipientis | % | -3.507 |
| CCC(C)(CC(=O)OC)NC(=O)c1cccc(F)c1F (stereo not drawn) | Wolbachia pipientis | % | 0.5787 |
| COc1ccc(Br)cc1CCC(=O)N1CCCC(O)C1 (stereo not drawn) | Wolbachia pipientis | % | -4.291 |
